biological target: Neu5Ac(a2-6)Gal(b1-4)GlcNAc(b1-3)Gal(b1-4)GlcNAc(b1-3)GalNAc; assay: glycan array binding signal (z-score within array); higher = stronger binding; details: glycan notation: IUPAC condensed, linker removed
This is one part of a sample in which the strongest signals are shown more often than they occur.
Documented glycan array binding signal (z-score) across a set of binders
Number only, no unit.

Example binders with recorded glycan array binding signal (z-score):
Input: Please report the recorded glycan array binding signal (z-score) for LlpA (Arthrobacter sp) (protein) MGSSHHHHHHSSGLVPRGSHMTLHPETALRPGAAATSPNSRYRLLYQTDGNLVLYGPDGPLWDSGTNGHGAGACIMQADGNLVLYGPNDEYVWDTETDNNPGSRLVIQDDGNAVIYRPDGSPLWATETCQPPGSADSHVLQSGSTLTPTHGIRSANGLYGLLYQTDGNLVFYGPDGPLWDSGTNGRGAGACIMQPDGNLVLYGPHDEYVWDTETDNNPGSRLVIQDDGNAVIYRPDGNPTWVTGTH .
Output: 0.214

Input: And for Mermaid2 (Stilbonema majum) (protein) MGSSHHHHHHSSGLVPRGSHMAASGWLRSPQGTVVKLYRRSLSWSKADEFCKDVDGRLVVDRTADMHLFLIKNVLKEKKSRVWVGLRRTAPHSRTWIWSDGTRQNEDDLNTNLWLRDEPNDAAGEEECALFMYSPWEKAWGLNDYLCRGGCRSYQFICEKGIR ?
Output: -0.709

We now examine a further binder.
Input: Please report the recorded glycan array binding signal (z-score) for Clrb (Mus musculus) (protein) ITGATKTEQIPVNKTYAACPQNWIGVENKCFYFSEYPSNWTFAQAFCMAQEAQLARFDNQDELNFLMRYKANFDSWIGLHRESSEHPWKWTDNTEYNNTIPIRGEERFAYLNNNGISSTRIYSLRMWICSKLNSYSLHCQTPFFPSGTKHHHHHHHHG .
Output: -0.628
